# test_system: RAC-alpha serine/threonine-protein kinase [139-480,S378A,S381A,T450D,S473D] (Homo sapiens, UniProt P31749, S378A/S381A/S473D/T450D)
# Construct: 139-480
# Sequence (P31749 139-480 S378A/S381A/T450D/S473D): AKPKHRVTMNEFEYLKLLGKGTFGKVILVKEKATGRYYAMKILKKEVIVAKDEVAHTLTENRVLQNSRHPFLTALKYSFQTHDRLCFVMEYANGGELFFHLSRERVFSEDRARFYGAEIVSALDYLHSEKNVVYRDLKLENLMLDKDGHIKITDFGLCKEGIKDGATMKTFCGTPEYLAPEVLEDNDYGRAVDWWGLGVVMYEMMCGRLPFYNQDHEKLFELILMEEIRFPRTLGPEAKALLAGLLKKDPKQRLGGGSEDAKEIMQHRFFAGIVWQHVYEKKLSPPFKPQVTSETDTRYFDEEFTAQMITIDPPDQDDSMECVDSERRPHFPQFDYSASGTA
# assay_comment: Akt Kinase Assay
Kindly supply the reported pIC50 values for the records listed here.
Kindly note that pIC50 refers to -log10 of the concentration in mol/L and answer with the value alone.

### Prompt Reported pIC50 for "Cc1cc(-c2cncc(OC[C@@H](N)Cc3c[nH]c4ccccc34)c2)cc2ccncc12" : what is it?
### Response 6.00

### Prompt Reported pIC50 for "Nc1c(-c2cncc(OC[C@@H](N)Cc3c[nH]c4ccccc34)c2)ccc2cnccc12" : what is it?
### Response 7.82

### Prompt Reported pIC50 for "N[C@H](COc1cncc(-c2ccc3cnc(C#Cc4ccccc4)cc3c2)c1)Cc1c[nH]c2ccccc12" : what is it?
### Response 7.25

### Prompt Reported pIC50 for "N[C@H](COc1cncc(-c2ccc3cnc(-c4ccncc4)cc3c2)c1)Cc1c[nH]c2ccccc12" : what is it?
### Response 6.91

### Prompt Reported pIC50 for "N[C@H](COc1cncc(-c2ccc3cnc(Cl)cc3c2)c1)Cc1c[nH]c2ccccc12" : what is it?
### Response 6.39

----------
# test_system: RAC-alpha serine/threonine-protein kinase [139-480,S378A,S381A,T450D,S473D] (Homo sapiens, UniProt P31749, S378A/S381A/S473D/T450D)
# Construct: 139-480
# assay_comment: Akt Kinase Assay
# setup_conditions: pH 7.5; 22 °C
Kindly supply the reported IC50 values for the records listed here.
Just the number please, in nM, no unit attached.

### Prompt Reported IC50 for "Cc1c(OC[C@@H](N)Cc2c[nH]c3ccccc23)cncc1-c1ccc2cnccc2c1" : what is it?
### Response 84

### Prompt Reported IC50 for "N[C@H](COc1cncc(-c2ccc3c(F)nccc3c2)c1)Cc1c[nH]c2ccccc12" : what is it?
### Response 227

### Prompt Reported IC50 for "N[C@H](COc1cc(-c2ccc3cnccc3c2)cnc1Cl)Cc1c[nH]c2ccccc12" : what is it?
### Response 12

### Prompt Reported IC50 for N[C@H](COc1cncc(-c2ccc3cnccc3c2)c1)Cc1c[nH]c2ccccc12 [13a (S-)] : what is it?
### Response 2

### Prompt Reported IC50 for "N[C@H](COc1cncc(-c2ccc3c(Cl)nccc3c2)c1)Cc1c[nH]c2ccccc12" : what is it?
### Response 778

----------
Kindly supply the reported pIC50 values for the records listed here.
# test_system: RAC-alpha serine/threonine-protein kinase [139-480,S378A,S381A,T450D,S473D] (Homo sapiens, UniProt P31749, S378A/S381A/S473D/T450D)
# Construct: 139-480
# assay_comment: Akt Kinase Assay
# setup_conditions: pH 7.5; 22 °C
Kindly note that pIC50 refers to -log10 of the concentration in mol/L and answer with the value alone.

### Prompt Reported pIC50 for "N#Cc1ncc(OC[C@@H](N)Cc2c[nH]c3ccccc23)cc1-c1ccc2cnccc2c1" : what is it?
### Response 8.34

### Prompt Reported pIC50 for "N[C@H](COc1cnc(-c2ccco2)c(-c2ccc3cnccc3c2)c1)Cc1c[nH]c2ccccc12" : what is it?
### Response 8.82

### Prompt Reported pIC50 for "C#Cc1ncc(OC[C@@H](N)Cc2c[nH]c3ccccc23)cc1-c1ccc2cnccc2c1" : what is it?
### Response 9.10

### Prompt Reported pIC50 for "Nc1nccc2cc(-c3cncc(OC[C@@H](N)Cc4c[nH]c5ccccc45)c3)ccc12" : what is it?
### Response 6.80

### Prompt Reported pIC50 for "C=Cc1ncc(OC[C@@H](N)Cc2c[nH]c3ccccc23)cc1-c1ccc2cnccc2c1" : what is it?
### Response 8.70

----------
# test_system: Protein kinase C zeta type (Homo sapiens)
# Sequence (Q05513 whole entry): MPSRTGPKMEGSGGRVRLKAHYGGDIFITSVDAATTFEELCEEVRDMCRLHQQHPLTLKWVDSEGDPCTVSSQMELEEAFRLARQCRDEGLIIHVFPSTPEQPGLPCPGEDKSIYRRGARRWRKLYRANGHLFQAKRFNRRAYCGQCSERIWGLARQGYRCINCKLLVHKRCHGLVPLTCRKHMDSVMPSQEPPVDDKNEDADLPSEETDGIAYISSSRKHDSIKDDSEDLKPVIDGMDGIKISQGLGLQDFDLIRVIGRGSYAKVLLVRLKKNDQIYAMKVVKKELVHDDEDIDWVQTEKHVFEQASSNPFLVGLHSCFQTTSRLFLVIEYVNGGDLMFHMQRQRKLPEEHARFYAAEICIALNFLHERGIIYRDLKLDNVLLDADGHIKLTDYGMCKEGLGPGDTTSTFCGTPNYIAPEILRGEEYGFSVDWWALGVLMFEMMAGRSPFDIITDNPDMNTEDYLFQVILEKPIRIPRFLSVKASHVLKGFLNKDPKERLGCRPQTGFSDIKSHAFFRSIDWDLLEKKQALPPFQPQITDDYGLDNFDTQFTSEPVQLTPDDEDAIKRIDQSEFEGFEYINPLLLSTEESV
property: IC50

### Prompt Look up IC50 with Protein kinase C zeta type (Homo sapiens) for this compound: "N[C@H](COc1cnc(Cl)c(-c2ccc3cnccc3c2)c1)Cc1c[nH]c2ccccc12"
### Response > 5 µM

----------
Kindly supply the reported IC50 values for the records listed here.
# test_system: RAC-alpha serine/threonine-protein kinase [139-480,S378A,S381A,T450D,S473D] (Homo sapiens, UniProt P31749, S378A/S381A/S473D/T450D)
# Construct: 139-480
# assay_comment: Akt Kinase Assay
# setup_conditions: pH 7.5; 22 °C
Just the number please, in nM, no unit attached.

### Prompt Reported IC50 for "N[C@H](COc1cnc(C#Cc2ccccc2)c(-c2ccc3cnccc3c2)c1)Cc1c[nH]c2ccccc12" : what is it?
### Response 1240

### Prompt Reported IC50 for "N[C@H](COc1cnc(Cl)c(-c2ccc3cnccc3c2)c1)Cc1c[nH]c2ccccc12" : what is it?
### Response 1.8

### Prompt Reported IC50 for "N#C/C=C/c1c(OC[C@@H](N)Cc2c[nH]c3ccccc23)cncc1-c1ccc2cnccc2c1" : what is it?
### Response 697

### Prompt Reported IC50 for "COc1nccc2cc(-c3cncc(OC[C@@H](N)Cc4c[nH]c5ccccc45)c3)ccc12" : what is it?
### Response 39500

### Prompt Reported IC50 for "N[C@H](COc1cncc(-c2ccc3c(=O)[nH]ccc3c2)c1)Cc1c[nH]c2ccccc12" : what is it?
### Response 1240

----------
# test_system: RAC-alpha serine/threonine-protein kinase [139-480,S378A,S381A,T450D,S473D] (Homo sapiens, UniProt P31749, S378A/S381A/S473D/T450D)
# Construct: 139-480
# assay_comment: Akt Kinase Assay
property: pIC50
Kindly note that pIC50 refers to -log10 of the concentration in mol/L and answer with the value alone.

### Prompt Reported pIC50 for "N[C@H](COc1cncc(-c2ccc3cnc(-c4ccccc4)cc3c2)c1)Cc1c[nH]c2ccccc12" : what is it?
### Response 6.52

### Prompt Reported pIC50 for "Nc1cc2cc(-c3cncc(OC[C@@H](N)Cc4c[nH]c5ccccc45)c3)ccc2cn1" : what is it?
### Response 8.47

### Prompt Reported pIC50 for "CCc1cc2cc(-c3cncc(OC[C@@H](N)Cc4c[nH]c5ccccc45)c3)ccc2cn1" : what is it?
### Response 6.84

----------
# test_system: RAC-alpha serine/threonine-protein kinase [139-480,S378A,S381A,T450D,S473D] (Homo sapiens, UniProt P31749, S378A/S381A/S473D/T450D)
# Construct: 139-480
# assay_comment: Akt Kinase Assay
Sorting guide: entries reporting IC50 beneath 200 nM go in the class 1 pile, the rest go in the class 0 pile.

### Prompt In the record for "N[C@H](COc1cncc(-c2ccc3cnc(F)cc3c2)c1)Cc1c[nH]c2ccccc12" , is IC50 less than 200 nM?
### Response class 1

### Prompt In the record for "C=Cc1cc2cc(-c3cncc(OC[C@@H](N)Cc4c[nH]c5ccccc45)c3)ccc2cn1" , is IC50 less than 200 nM?
### Response class 1

### Prompt In the record for "N[C@H](COc1cncc(-c2ccc3cnc(-c4ccco4)cc3c2)c1)Cc1c[nH]c2ccccc12" , is IC50 less than 200 nM?
### Response class 1

### Prompt In the record for "N#Cc1cc2cc(-c3cncc(OC[C@@H](N)Cc4c[nH]c5ccccc45)c3)ccc2cn1" , is IC50 less than 200 nM?
### Response class 0

### Prompt In the record for "CC#Cc1cc2cc(-c3cncc(OC[C@@H](N)Cc4c[nH]c5ccccc45)c3)ccc2cn1" , is IC50 less than 200 nM?
### Response class 1
